Where do the numbers come from? From patent US20250382363A1.

Measured n-fold to wt by item
# SYSTEM_UNDER_TEST: T1, human a-Mesothelin (Acro Biosystems; MSN_H5223) (human, UniProt Q13421 296-580, limits assumed)
# T1 construct: Bought protein immobilised on the SPR chip; Printed as 'a-Mesothelin' but used as the antigen for the anti-MSLN scFvs; also called Human MSLN; MSLN
# PROTOCOL: SPR, mesothelin immobilised, scFv analyte, 1:1 fit
Supply the numeric figure in fold, leaving out any unit text.

# annotated cases, reported n-fold to wt shown
BINDER	ASSAY_READOUT	MEASURED
PRO1922 (scFv 54-21-H03-sc01) (scFv, also called PRO1922 wt; a-MSLN wt) scFv: DIQMTQSPSSLSASVGDRVTITCQASESIYSSLAWYQQKPGKAPKLLIYLASTLASGVPSRFSGSGSGTDFTLTISSLQPEDFATYYCQSTDYTTSTHRNSFGTGTKVTVLGGGGGSGGGGSGGGGSGGGGSEVQLVESGGGLVQPGGSLRLSCAASGFSFSTTYYMCWVRQAPGKGLEWIGCTNTASSVRTYYATWAKGRFTISRDNSKNTVYLQMNSLRAEDTAVYYCARDMGFADYALNLWGQGTLVTVSS	n-fold to wt	1
PRO2930 (scFv 54-21-H03-sc01_(L144K, T146E, S148K)) (scFv, PRO1922 variant; VH substitutions, AHo numbering; also called PRO1922 L144K-T146E-S148K) scFv: DIQMTQSPSSLSASVGDRVTITCQASESIYSSLAWYQQKPGKAPKLLIYLASTLASGVPSRFSGSGSGTDFTLTISSLQPEDFATYYCQSTDYTTSTHRNSFGTGTKVTVLGGGGGSGGGGSGGGGSGGGGSEVQLVESGGGLVQPGGSLRLSCAASGFSFSTTYYMCWVRQAPGKGLEWIGCTNTASSVRTYYATWAKGRFTISRDNSKNTVYLQMNSLRAEDTAVYYCARDMGFADYALNLWGQGTKVEVKS	n-fold to wt	0.7

Shift focus to the following entry.
Enquiry: Give its n-fold to wt value. Item: PRO2936 (scFv 54-21-H03-sc01_(T101S, T146Q)) (scFv, PRO1922 variant; VH substitutions, AHo numbering; also called PRO1922 T101S-T146Q) scFv: DIQMTQSPSSLSASVGDRVTITCQASESIYSSLAWYQQKPGKAPKLLIYLASTLASGVPSRFSGSGSGTDFTLTISSLQPEDFATYYCQSTDYTTSTHRNSFGTGTKVTVLGGGGGSGGGGSGGGGSGGGGSEVQLVESGGGLVQPGGSLRLSCAASGFSFSTTYYMCWVRQAPGKGLEWIGCTNTASSVRTYYATWAKGRFTISRDNSKNTVYLQMNSLRAEDSAVYYCARDMGFADYALNLWGQGTLVQVSS
Return: 0.4
